FYI, the data here is from PubChem BioAssay AID1963981.

The entries below come with measured viability, T/C values attached.
Tested on: 354836-022-R-J1-PDC multicell spheroid viability;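 also: spheroids exposed to agents for seven days before the viability read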
measurement notes: Anticancer human tumor 354836-022-R-J1-PDC patient-derived head and neck squamous cell carcinoma cell line growth inhibition [PI3K]
condition set: second compound 3.16 µM; first compound 10 µM; hits give low values
Give the number; % is assumed, so skip it.

compound | experimental target | viability, T/C (%)
CCCS(=O)(=O)Nc1ccc(F)c(C(=O)c2c[nH]c3ncc(-c4ccc(Cl)cc4)cc23)c1F + Cc1nc(NC(=O)N2CCCC2C(N)=O)sc1-c1ccnc(C(C)(C)C(F)(F)F)c1 | 354836-022-R-J1-PDC multicell spheroid viability | 11.5
C=CC(=O)N1CCN(c2nc(=O)n(-c3c(C)ccnc3C(C)C)c3nc(-c4c(O)cccc4F)c(F)cc23)C(C)C1 (stereo not given) + Cc1nc(NC(=O)N2CCCC2C(N)=O)sc1-c1ccnc(C(C)(C)C(F)(F)F)c1 | 354836-022-R-J1-PDC multicell spheroid viability | 60.2
C#Cc1c(F)ccc2cc(O)cc(-c3ncc4c(N5CC6CCC(C5)N6)nc(OCC56CCCN5CC(F)C6)nc4c3F)c12 (stereo not given) + CC(Nc1ncnc2nc[nH]c12)c1cc2cccc(Cl)c2c(=O)n1-c1ccccc1 | 354836-022-R-J1-PDC multicell spheroid viability | 70

Request: viability, T/C, test system 354836-022-R-J1-PDC multicell spheroid viability, entry Cn1ncc(Cl)c1-c1cc(C(=O)NC(CN)Cc2cccc(F)c2)sc1Cl (stereo not given) + CC(Nc1ncnc2nc[nH]c12)c1cc2cccc(Cl)c2c(=O)n1-c1ccccc1 2.1

Request: viability, T/C, test system 354836-022-R-J1-PDC multicell spheroid viability, entry Cn1nccc1Nc1nccc(-c2ccn(C(CO)c3ccc(Cl)c(F)c3)c(=O)c2)n1 (stereo not given) + CC(Nc1ncnc2nc[nH]c12)c1cc2cccc(Cl)c2c(=O)n1-c1ccccc1 88.1
